Molecular target: P2Y1 receptor (Homo sapiens)
Construct: expressed in transfected cells
Sequence (P47900 whole entry): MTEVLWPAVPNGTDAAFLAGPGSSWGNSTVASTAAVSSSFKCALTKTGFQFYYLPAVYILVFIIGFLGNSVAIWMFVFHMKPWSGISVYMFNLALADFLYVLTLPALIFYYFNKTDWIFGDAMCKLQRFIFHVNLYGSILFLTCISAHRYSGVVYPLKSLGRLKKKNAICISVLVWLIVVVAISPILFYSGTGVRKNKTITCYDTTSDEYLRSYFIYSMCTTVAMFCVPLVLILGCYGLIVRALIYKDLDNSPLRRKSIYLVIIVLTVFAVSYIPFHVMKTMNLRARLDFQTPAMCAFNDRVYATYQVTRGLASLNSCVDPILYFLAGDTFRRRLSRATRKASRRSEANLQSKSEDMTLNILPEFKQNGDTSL
Test: Cell based HTRF assay measuring IP1 accumulation; antagonism of the P2Y1 agonist MRS2365
Settings: rounded to nearest whole number; read-out: IC50 IP1
experimental.endpoint: IC50 (µM)

compound	readout.unit	reading
N#Cc1ccc(-c2cccc(Oc3ncccc3NC(=O)Nc3ccc(OC(F)(F)F)cc3)c2)cc1 [S71]	µM	4.94
Cc1c(C#N)cccc1Oc1ncccc1NC(=O)Nc1ccc(OC(F)(F)F)cc1 [S44]	µM	1.03
CC(c1ccccc1Oc1ncccc1NC(=O)Nc1ccc(OC(F)(F)F)cc1)N1CCCCC1 (centres unmarked) [S74]	µM	6
Cc1c(Oc2ncccc2NC(=O)Nc2ccc(OC(F)(F)F)cc2)cccc1-c1cccc(CN(C)C)c1 [S85]	µM	9.53
O=C(Nc1ccc(OC(F)(F)F)cc1)Nc1cccnc1Oc1cccc(N2CCOCC2)c1 [S83]	µM	8.73
Cc1c(Oc2ncccc2NC(=O)Nc2ccc(OC(F)(F)F)cc2)cccc1-c1ccc2c(c1)OCCN2 [S49]	µM	1.24
CC(C)(C)c1ccccc1Oc1ncccc1NC(=O)Nc1nc2ccc(Cl)nc2s1 [S17]	µM	0.209
Cc1ccnc(Oc2ccccc2C(C)(C)C)c1NC(=O)Nc1ccc(OC(F)(F)F)cc1 [S22]	µM	0.302

(1) CC(C)(C)c1ccccc1Oc1ncccc1NC(=O)NCCc1ccccc1 [S43]
(2) CC(C)(C)c1ccccc1Oc1ncc(-c2ccc(C#N)cc2)cc1NC(=O)Nc1ccc(OC(F)(F)F)cc1 [S58]
(3) Cc1cccc(Oc2ncccc2NC(=O)Nc2ccc(OC(F)(F)F)cc2)c1Br [S24]
(4) Cc1ccccc1Oc1ncc(NC2CCOCC2)cc1NC(=O)Nc1ccc(OC(F)(F)F)cc1 [S84]
Please put the entries in order of rising IC50. I would appreciate it if you listed the labels in the requested order. 3, 1, 2, 4
(3: 0.398 µM, 1: 0.958 µM, 2: 2.1 µM, 4: 8.99 µM)

(1) Cc1c(Br)cccc1Oc1ncccc1NC(=O)Nc1ccc(OC(F)(F)F)cc1 [S28]
(2) Cc1c(Oc2ncccc2NC(=O)Nc2ccc(OC(F)(F)F)cc2)cccc1-c1cnn(C)c1 [S61]
Pick one: 1 or 2 . Which one has the lower reported IC50? // output: label of the selected item 1
